Tested on: HCT-15 colon
assay remarks: NCI tumour cell line growth inhibition, 48 h
endpoint label: GI50

{"columns": ["compound", "endpoint value"],
 "data": [
  ["C=CC(=O)N1CCCC(n2nc(-c3ccc(Oc4ccccc4)cc3)c3c(N)ncnc32)C1 (stereo not given)", "12.6 µM"],
  ["CC(C)c1ccc(Cc2cnc(NC(=O)c3cc(Br)cs3)s2)cc1", "0.789 µM"],
  ["CCCCCCC/C=C/[C@H]1O[C@]23C(=O)C[C@@]4(C[C@@H](OC5OC(CO)C(O)C(O)C5O)C[C@@H]4[C@H]2C=C1C)OC3=O (stereo not given in full)", "2.53 µM"],
  ["Oc1ccc(Br)cc1Sc1cc(Br)ccc1O", "5.93 µM"],
  ["CC1=CSC2=NC(c3ccc(Cl)c(Cl)c3)=CC(c3ccc(Cl)cc3)N12 (stereo not given)", "> 100 µM"],
  ["O=C(Nc1ccc(Cl)cc1)Nc1ccc(Cl)c(Cl)c1", "2.92 µM"],
  ["c1ccc2c(c1)[I+]c1ccccc1-2", "> 50 µM"],
  ["COc1cc(/C=C/c2cc(C(F)(F)F)[nH]c(=O)n2)ccc1OCc1ccccc1F", "5.22 µM"],
  ["COc1ccc2c(c1)sc1nc(-c3ccccc3)c(-c3ccsc3)n12", "2.91 µM"],
  ["Cc1ccc(C(=O)c2oc3ccc4c(C)cc(=O)oc4c3c2C)cc1", "0.585 µM"],
  ["COC(=O)CCC/C=C\\C[C@H]1C=CC(=O)/C1=C/C[C@@H](O)CCc1cccc(C(F)(F)F)c1", "1.67 µM"],
  ["O=c1ccn(C2OC(CO)C(O)C2O)c(=O)[nH]1 (stereo not given)", "> 1000 µM"],
  ["COc1cc2c(cc1OCc1ccccc1)N=C[C@@H]1C/C(=C/C(=O)NCCCN3C(=O)c4cccc5cccc(c45)C3=O)CN1C2=O", "3.96 µM"],
  ["CN1CCN(Cc2ccc(NC(=O)c3cncc(C#Cc4cnc(N)c5ccc(F)cc45)c3)cc2C(F)(F)F)CC1", "1.03 µM"],
  ["COc1cc(-c2nc3ccc(C)cc3[nH]2)ccc1OCC(=O)N=Nc1c(O)[nH]c2ccccc12", "4.18 µM"]
]}

====

Test system: CCRF-CEM leukemia
assay remarks: NCI tumour cell line growth inhibition, 48 h
Listed below: GI50 values for each entry.

{"columns": ["molecule", "target under test", "GI50"],
 "data": [
  ["CCCCCCC/C=C/[C@H]1O[C@]23C(=O)C[C@@]4(C[C@@H](OC5OC(CO)C(O)C(O)C5O)C[C@@H]4[C@H]2C=C1C)OC3=O (stereo partly drawn)", "CCRF-CEM leukemia", "1190 nM"],
  ["CN(C)CCNc1nc2ccccc2c2c1c1c(n2Cc2ccccc2)-c2ccccc2C1=O", "CCRF-CEM leukemia", "7860 nM"],
  ["O=C1c2cc(Br)ccc2-c2c1c1ccc([N+](=O)[O-])cc1c(=O)n2CCCCl", "CCRF-CEM leukemia", "< 10 nM"],
  ["O=C(Nc1ccc(Cl)cc1)Nc1ccc(Cl)c(Cl)c1", "CCRF-CEM leukemia", "2250 nM"],
  ["CC1=CSC2=NC(c3ccc(Cl)c(Cl)c3)=CC(c3ccc(Cl)cc3)N12 (stereo not drawn)", "CCRF-CEM leukemia", "> 100000 nM"],
  ["C=CCn1c(C)nc2cc(Nc3nc(Nc4ccc5nc(C)n(CC=C)c5c4)c4ccccc4n3)ccc21", "CCRF-CEM leukemia", "279 nM"],
  ["CCCCNc1nc(NC(C)(C)C)nc(NC(C)(C)C)n1", "CCRF-CEM leukemia", "3180 nM"],
  ["CC(=O)Oc1cc(C)ccc1[C@]1(C)CC[C@H](C)/C1=C\\Br", "CCRF-CEM leukemia", "2750 nM"]
]}
